system: MS2 coat protein; assay: apparent KD of MS2 coat protein; designed switch direction (-1 OFF switch, 1 ON switch): 1; higher = weaker reporter binding; conditions: input ligand: microRNA oligo, concentration not stated
Listed next: entries and their corresponding apparent KD of MS2 coat protein.
# answer = value followed by unit

Worked cases, answers included:
sequence-code: UAGCUCGUGUGAGGAUAUGCCGCCGUUUCGGCUGCAGAAGGUGCUACGUUACAUGAGGAUCACCCAUGUCUCUGUUGUUUCGUC [salish99_SSNG1_r04_955] (Eterna round: R96, puzzle: Same State NG 1)
assay-target: MS2 coat protein
apparent KD of MS2 coat protein: 23.9 nM
//
sequence-code: GAAAAACAUGAGGAUCACCCAUGUAGAAAUAUGGGAGGAUAUACAAAGUCGAAAGACAAAGUAGAAGGCCUAAAAG [Mat - Same State 1 - Eli mod - D2] (Eterna round: R96, puzzle: Same State 1)
assay-target: MS2 coat protein
apparent KD of MS2 coat protein: 96.8 nM
//
sequence-code: GUUACAUGAGGAUCACCCAUGUAUGUGUGGGAGUAAGUGUCUUAGGAUAUCUGUUAUCUAAUUUAAGAGAAGGAAGAUUGUUGU [JMF's solution 35] (Eterna round: R96, puzzle: Same State NG 3)
assay-target: MS2 coat protein
apparent KD of MS2 coat protein: 53.4 nM
//
sequence-code: AUACAUGAGGAUCACCCAUGUAAUUAAUUAACUUGUAAGAUCAAGGAUAUCAGCUCGAUUAGAGCUGAGAAGGUGAUCACAUGU [SSNG3/21-C2] (Eterna round: R96, puzzle: Same State NG 3)
assay-target: MS2 coat protein
apparent KD of MS2 coat protein: 116 nM

Sure, the documented apparent KD of MS2 coat protein for GUUAGGAAUCUAGCAAACAUGAGGAUCACCCAUGUUAGUGGGAAGGAUAUGGUACAGAAACUGUACCAGAAGGUCUUAUUGUUU [Omei SS(NG) 3 AV9] (Eterna round: R96, puzzle: Same State NG 3) is 403 nM

###

tested on: MS2 coat protein; assay: apparent KD of MS2 coat protein, switch ON state; designed switch direction (-1 OFF switch, 1 ON switch): 1; higher = weaker reporter binding; settings: FMN input: 0 or 200 uM; Eterna round: R93 (includes R88 designs)
apparent KD of MS2 coat protein by entry:
Numeric answer only, unit nM assumed.

sequence-code: AAAAAACAUGAGGAUCACCCAUGUAAAAAAAUGGGAGGAUAUACAAAAACGAAAGAAAAAGUAGAAGGCCUGAAAA [same state 7]
assay-target: MS2 coat protein
endpoint-result: 37.7

sequence-code: GAAAAACAUGAGGAUCACCCAUGUGAUAAUAUGGGAGGAUAUACGAAGACGAAAGUCAAAGUAGAAGGCCUAAAAG [Garnet 36]
assay-target: MS2 coat protein
endpoint-result: 57.5

sequence-code: AUAUGCAUAGACAAGGAUAUCGGUCUAGAAACAUGAGGAUCACCCAUGUAAGUGAAAAUCUGUAAUGAGAAGGUGUUGUUGGGUU [Isan]
assay-target: MS2 coat protein
endpoint-result: 75

sequence-code: AAUAAUUAUACGAAGGAUAUCGGUAUUAAGACAUGAGGAUCACCCAUGUAAUAUGGUUAUAUAAACGAGAAGGUCGAGGGUGAAA [JR_SS002_Sub008]
assay-target: MS2 coat protein
endpoint-result: 38.6

sequence-code: CAGGACAUAGGAUAGGAUAUAUGAAUAAUUACAUGAGGAUCACCCAUGUCCAUUUAUAUGGGAACAUAGAAGGGUUGUAGUUAUG [Mat - Same state - Malcolm Mod - D143]
assay-target: MS2 coat protein
endpoint-result: 515

sequence-code: CGGCUACAUGAGGAUCACCCAUGUCAGCCGAGGGCAGGAUAUGUGGUUCAUUCUCAAGCAACAGAAGGGUCAAAAG [Istiacedi]
assay-target: MS2 coat protein
endpoint-result: 16.9

sequence-code: AACAAUCUAUCUGAGGAUAUCAUGUGAAAGACAUGAGGAUCACCCAUGUUGCAGGAAACUGCUCAUGAGAAGGCAGAUAGAUUGA [SS2: 1126]
assay-target: MS2 coat protein
endpoint-result: 11.5

Turning to the following sequence.
Recorded apparent KD of MS2 coat protein (sequence AAAAAAAAAAGAGAGGAUAUCCAAAAAAAAACAUGAGGAUCACCCAUGUAAAAAAAAAAAAAAUGGGAGAAGGCUCAAAAAAAAAA [Helter Skelter 1] ): 33.4

// provenance: the supplement of paper PMC9170038
